Recorded phosphorylation enrichment by entry
Target or system: Jak2 (UniProt O60674)
Sequence (O60674 whole entry, looked up): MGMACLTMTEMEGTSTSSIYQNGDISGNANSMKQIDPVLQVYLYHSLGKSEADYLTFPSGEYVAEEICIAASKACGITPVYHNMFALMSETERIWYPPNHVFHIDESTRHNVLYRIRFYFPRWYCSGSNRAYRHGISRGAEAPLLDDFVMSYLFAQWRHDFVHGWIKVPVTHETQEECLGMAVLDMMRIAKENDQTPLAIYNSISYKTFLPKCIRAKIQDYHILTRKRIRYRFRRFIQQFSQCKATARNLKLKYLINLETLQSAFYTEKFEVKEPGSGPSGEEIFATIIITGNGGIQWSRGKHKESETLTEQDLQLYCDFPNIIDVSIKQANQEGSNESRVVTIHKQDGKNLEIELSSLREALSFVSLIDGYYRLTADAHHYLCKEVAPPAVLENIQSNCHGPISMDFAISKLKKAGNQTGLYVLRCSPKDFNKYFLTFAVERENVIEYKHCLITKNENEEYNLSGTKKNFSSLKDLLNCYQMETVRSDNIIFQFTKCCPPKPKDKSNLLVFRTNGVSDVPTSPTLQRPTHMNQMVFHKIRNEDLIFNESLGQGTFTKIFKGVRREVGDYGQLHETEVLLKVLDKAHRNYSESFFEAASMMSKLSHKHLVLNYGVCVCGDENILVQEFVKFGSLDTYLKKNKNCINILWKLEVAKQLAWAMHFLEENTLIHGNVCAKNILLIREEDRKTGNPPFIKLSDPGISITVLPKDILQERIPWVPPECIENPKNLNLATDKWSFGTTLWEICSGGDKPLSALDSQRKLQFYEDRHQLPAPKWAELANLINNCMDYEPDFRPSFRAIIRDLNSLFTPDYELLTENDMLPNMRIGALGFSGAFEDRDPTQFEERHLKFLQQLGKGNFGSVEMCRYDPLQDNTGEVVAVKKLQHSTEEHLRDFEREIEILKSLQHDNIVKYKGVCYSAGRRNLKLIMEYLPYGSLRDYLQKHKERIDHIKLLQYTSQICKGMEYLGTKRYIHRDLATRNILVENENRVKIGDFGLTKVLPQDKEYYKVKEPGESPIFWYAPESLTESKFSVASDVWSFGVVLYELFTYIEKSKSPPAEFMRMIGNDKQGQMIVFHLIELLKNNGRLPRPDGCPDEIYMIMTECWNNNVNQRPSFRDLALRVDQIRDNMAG
Experiment: phosphorylation enrichment, bacterial display (enrichment ratio); higher = better substrate or ligand; peptides without Tyr show the background
Respond numerically, and do not add a unit to the figure.

Here's what some known entries look like.
| Seq text | Target or system | Value observed |
| --- | --- | --- |
| DSNPIYSQIWS [FCRL3_Y662] | Jak2 (UniProt O60674) | 1.18 |
| ELETLYKKAVK [CC2D2A_Y381] | Jak2 (UniProt O60674) | 0.684 |
| LIDGFYRLTAD [JAK2_Y373_YF] | Jak2 (UniProt O60674) | 1.29 |
| CTIIHYNFMCN [TP53_Y234_T231I_YF] | Jak2 (UniProt O60674) | 1.5 |
| NYADPYRQLQY [CTNND2_Y503] | Jak2 (UniProt O60674) | 0.672 |
| KPAFSYTSSST [SIM1_Y356] | Jak2 (UniProt O60674) | 0.528 |

Query string: Returns the measured phosphorylation enrichment for the input sequence. Input: SHGKQYRVPSD [HHIPL2_Y395_R394Q]
Result string: 0.46

Query string: Further, for VERRVYAEDPY [PCCA_Y401_C398R] ?
Result string: 0.663

Query string: Can you handle SSMIDYNLLEK [MYOC_Y479_P481L] next?
Result string: 0.968

Query string: What do we get for QQLVAYFSKHT [SRC_Y232_A237T_YF] ?
Result string: 1.75

----------
Catalogue of sequences with associated phosphorylation enrichment
Test system: AncSZ
Experiment: phosphorylation enrichment, bacterial display (enrichment ratio); higher = better substrate or ligand; peptides without Tyr show the background
Write the number on its own, no unit after it.

| Seq text | Target or system | Outcome measure | Value observed |
| --- | --- | --- | --- |
| VMIYAYLLHRG [PTEN_Y138_C136Y] | AncSZ | phosphorylation enrichment | 0.821 |
| SRWKLYPRMLR [HAO1_Y50] | AncSZ | phosphorylation enrichment | 0.81 |
| YSNVLYRPRGP [TMIGD2_Y197_A202P] | AncSZ | phosphorylation enrichment | 0.796 |

// switching to the query sequence
Query string: Field: phosphorylation enrichment (AncSZ). Entry: KPVDTYYDSTR [DYNC2H1_Y2230_M2227V]
Result string: 0.808

----------
SH2 binding enrichment by entry:
Target or system: Grb2 SH2 (UniProt P62993)
Sequence (P62993 whole entry, looked up): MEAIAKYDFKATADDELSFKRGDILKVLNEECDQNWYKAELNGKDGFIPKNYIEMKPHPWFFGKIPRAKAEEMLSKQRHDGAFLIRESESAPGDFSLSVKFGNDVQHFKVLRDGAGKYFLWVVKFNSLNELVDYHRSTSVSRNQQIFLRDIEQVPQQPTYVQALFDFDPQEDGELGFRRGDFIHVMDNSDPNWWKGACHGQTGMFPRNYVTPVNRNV
Experiment: SH2 binding enrichment of the phosphorylated peptide, bacterial display (enrichment ratio); higher = better substrate or ligand; peptides without Tyr show the background
Please give only the number in your answer, with no unit.

Query string: Field request: SH2 binding enrichment | item: FLQTDDTSQVS [FRMPD1_Y846_Y846D]
Result string: 0.798

----------
Test system: c-Src
Experiment: phosphorylation enrichment, bacterial display (enrichment ratio); higher = better substrate or ligand; peptides without Tyr show the background
Outcome measure: phosphorylation enrichment
# answer = number (no unit)

| Seq text | phosphorylation enrichment |
| --- | --- |
| IFGVSYGEYRY [CFTR_Y512_D513G] | 5.62 |
| DISEPYEVYRI [IRF8_Y107_K108E] | 3.97 |
| TFHNTYHSQMR [IL1RAPL1_Y615] | 0.5 |
| STDDGYIDLQF [TMEM230_Y29] | 0.488 |
| ENRLDYGSAWA [AR_Y395_P392R] | 0.435 |
| ATLDVYNPFET [SCAMP3_Y41] | 3.24 |

Query string: Reported phosphorylation enrichment, sequence ATHSRYRLNDF [CLDN14_Y233_G232R_YF] : ____
Result string: 0.36

Query string: Follow-up entry: DTCPPYVLSQG [GJB4_Y237]
Result string: 0.637

Query string: Then this sequence: AGADGYDYLAP [FOXL2_Y186_G187D]
Result string: 0.388

Query string: Moving on to the next sequence: PPSGEYFGQCG [TRIP6_Y275]
Result string: 0.771

Query string: Moving on to MSRDVYSTDYY [NTRK2_Y702]
Result string: 3.88

Query string: Also check PSPTRYSLSPS [RANBP2_Y785]
Result string: 0.597

Query string: # repeat for IENKLYGTSDP [RET_Y1062_M1064T]
Result string: 0.509

Query string: Record: LKSEMYQKLFK [RGS13_Y146_L150F]
Result string: 0.626

Query string: Same again, this time with KVMANYVFKAG [MAML2_Y513_M514V_YF]
Result string: 0.433

Query string: Same thing, different sequence: WKESWYSMRKM [FGB_Y475_G472E]
Result string: 0.672

Query string: Now this one: LWKWKYEELKE [CCDC102B_Y299]
Result string: 0.27

----------
Target or system: FGFR1 (UniProt P11362)
Sequence (P11362 whole entry, looked up): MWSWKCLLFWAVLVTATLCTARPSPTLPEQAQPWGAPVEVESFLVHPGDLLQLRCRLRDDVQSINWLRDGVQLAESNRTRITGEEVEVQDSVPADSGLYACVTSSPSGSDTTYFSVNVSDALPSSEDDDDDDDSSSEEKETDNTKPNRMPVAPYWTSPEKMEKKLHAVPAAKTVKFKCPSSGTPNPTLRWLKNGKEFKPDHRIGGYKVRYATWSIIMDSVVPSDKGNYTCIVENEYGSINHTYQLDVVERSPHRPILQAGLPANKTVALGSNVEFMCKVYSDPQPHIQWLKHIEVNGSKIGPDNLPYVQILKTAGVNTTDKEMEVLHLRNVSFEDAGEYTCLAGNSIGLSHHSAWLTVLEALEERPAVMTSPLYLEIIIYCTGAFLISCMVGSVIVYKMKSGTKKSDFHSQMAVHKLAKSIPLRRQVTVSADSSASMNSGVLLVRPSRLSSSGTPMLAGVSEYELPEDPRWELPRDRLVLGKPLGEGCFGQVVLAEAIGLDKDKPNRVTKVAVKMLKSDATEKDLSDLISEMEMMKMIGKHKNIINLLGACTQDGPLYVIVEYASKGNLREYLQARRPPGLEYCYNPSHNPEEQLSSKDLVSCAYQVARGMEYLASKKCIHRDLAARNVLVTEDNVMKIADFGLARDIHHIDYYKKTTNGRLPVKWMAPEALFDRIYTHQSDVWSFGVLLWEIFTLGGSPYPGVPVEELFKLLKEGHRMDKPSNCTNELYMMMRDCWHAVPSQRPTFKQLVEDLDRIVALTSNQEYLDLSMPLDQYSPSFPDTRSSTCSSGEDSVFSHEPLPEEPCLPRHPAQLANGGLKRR
Experiment: phosphorylation enrichment, bacterial display (enrichment ratio); higher = better substrate or ligand; peptides without Tyr show the background
Label class 1 when phosphorylation enrichment is at or above 0.5; anything below gets class 0.

Some solved entries appear below for comparison.
| Seq text | Class label |
| --- | --- |
| SAEEDYMADAK [KCNT1_Y876] | class 1 |
| HLATEYVFSDF [PANX1_Y10_Q5H] | class 1 |
| FPHVISARLWR [SMAD4_Y95_Y95S] | class 0 |
| LHAALYKRKLL [TTLL5_Y542_E543K] | class 0 |
| DGLASYLDKVR [KRT12_Y139_R135G] | class 0 |

Query string: Kindly determine if phosphorylation enrichment recorded for VIKDKYPQARF [APTX_Y209_K211Q_YF] is above or exactly 0.5.
Result string: class 0

Query string: And for WGLCSYYETSK [MAGED2_Y448_R446C] ?
Result string: class 1

----------
Target or system: Jak2 (UniProt O60674)
Experiment: phosphorylation enrichment, bacterial display (enrichment ratio); higher = better substrate or ligand; peptides without Tyr show the background
Categories are assigned from the measured phosphorylation enrichment using these intervals: small value (below 0.6), mid value (0.6 to below 0.9), large value (0.9 or more)

Worked set:
| Seq text | Class label |
| --- | --- |
| APSGNYVACGG [GNB1_Y111] | small value |
| TNFCLYLRSLE [MTM1_Y71_R69C_YF] | large value |
| SVTGTYSPALN [TP53_Y126_C124G] | mid value |
| LGQRIYQYIQS [DYRK1B_Y271] | large value |
| RCFVFYFSFLL [PTEN_Y177_R173C_YF] | mid value |
| VNNAVYGIDAM [EIF3J_Y143] | mid value |
| NSFKFYMSDDI [ATRX_Y204_C200S_YF] | large value |
| QGQHWYSSSDK [CASP10_Y9] | mid value |
| DRLASDLDKVR [KRT10_Y160_Y160D] | small value |
| KSDVVYTDWKK [ORM1_Y175] | mid value |

Query string: Would you mind sorting VIKDKYPQARF [APTX_Y209_K211Q_YF] into the appropriate category?
Result string: small value

Query string: Try this sequence next: DGQVNYEEFVQ [CALM1_Y139]
Result string: large value

Query string: And what about the sequence KYVKMCDNHQL [MYO9A_Y203_Y203C] ?
Result string: small value

Query string: Same lookup for WQQQSYLDFGI [CTNNB1_Y30_S33F] , please.
Result string: large value

Query string: Do the same for IKEFKYGIEEH [GJA1_Y137_K134E] please
Result string: small value

----------
Target or system: Grb2 SH2 (UniProt P62993)
Experiment: SH2 binding enrichment of the phosphorylated peptide, bacterial display (enrichment ratio); higher = better substrate or ligand; peptides without Tyr show the background
Recorded SH2 binding enrichment by entry
Answer using only a numeral; do not append any unit.

Example results:
| Seq text | SH2 binding enrichment |
| --- | --- |
| KSPDSYQKILP [ATM_Y1415_L1420P] | 0.947 |
| FMGVEYSSCDT [EPHA3_Y937_T933M] | 0.598 |
| ASTDYYKRGDF [PDHA1_Y243] | 0.767 |
| EPFKVYRIVPE [IRF8_Y110_YF] | 0.774 |
| GISDEYHVIRR [GCDH_Y398_H403R] | 0.833 |

Query string: Fill blank: measured SH2 binding enrichment of the sequence EQLRAYLEGLC [HLA-C_Y183_T187L] is ____.
Result string: 0.704

----------
Below, each entry is listed with its recorded phosphorylation enrichment.
System: Fer (mouse)
Experiment: phosphorylation enrichment, bacterial display (enrichment ratio); higher = better substrate or ligand; peptides without Tyr show the background
Form rule: numeric answer, no unit written next to it.

| Seq text | Target or system | Value observed |
| --- | --- | --- |
| DRLASDLDKVR [KRT10_Y160_Y160D] | Fer (mouse) | 0.416 |
| GSTLSYFGLAT [P2RX7_Y343_A348T] | Fer (mouse) | 0.545 |
| SAEEDYMADAK [KCNT1_Y876] | Fer (mouse) | 0.632 |
| SVETPYGSVTF [NDRG2_Y47] | Fer (mouse) | 5.24 |
| KGERGYPGTLG [COL4A1_Y348_P352L] | Fer (mouse) | 0.345 |
| RPSELYFSKIG [SMG1_Y2253_YF] | Fer (mouse) | 0.421 |
| QMEKICTQQIQ [CCNB1IP1_Y125_Y125C] | Fer (mouse) | 0.537 |
| TTPFNYSFIFK [RAB14_Y8_A4T_YF] | Fer (mouse) | 0.74 |

Query string: Need phosphorylation enrichment, item SHMVNYQPFRK [TEX37_Y25_D24N_YF]
Result string: 0.355

Query string: Try this sequence next: PLGVLYKVKVF [PTS_Y128_V124L_YF]
Result string: 0.692
